Biological target: T1, human 5T4-His protein (human, UniProt Q13641 32-355)
T1 construct: also called recombinant 5T4 protein (human 5T4-his tag); human 5T4 protein; not shown: His tag
T1 sequence (looked up): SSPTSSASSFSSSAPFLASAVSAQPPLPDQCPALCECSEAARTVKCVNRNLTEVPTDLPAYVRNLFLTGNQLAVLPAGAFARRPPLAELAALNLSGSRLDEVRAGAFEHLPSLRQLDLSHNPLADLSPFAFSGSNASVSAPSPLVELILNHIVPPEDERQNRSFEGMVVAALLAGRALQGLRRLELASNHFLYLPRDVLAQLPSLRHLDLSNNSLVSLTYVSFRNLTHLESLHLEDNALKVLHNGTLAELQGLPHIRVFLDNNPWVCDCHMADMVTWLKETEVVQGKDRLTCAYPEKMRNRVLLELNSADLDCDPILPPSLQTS
Test: ELISA, coated 5T4-His
Here the recorded pEC50 is given for each entry.
pEC50 here is simply -log10 of the concentration when that concentration is written in mol/L.

Examples from the recorded data:
Hu159D5-12 (antibody, V domains shown, humanized) VH: EVQLVESGGGVVQPGRSLRLSCAASGFTFSNFGMHWVRQAPGKGLEWVAYISSGSSTFYYADSVKGRFTISRDNSKNTLYLQMNSLRAEDTAVYFCARSPAYYRYGLDYWGQGTTVTVSS VL: DIVLTQSPDSLAVSLGERATINCRASQSVSSSTFSYMHWYQQKPGQPPKLLIKSSSNLESGVPDRFSGSGSGTDFTLTISSLQAEDVAVYYCQHSWEIPYTFGGGTKVEIK: 9.92
Hu159D5-5 (antibody, V domains shown, humanized) VH: EVQLVESGGGVVQPGRSLRLSCAASGFTFSNFGMHWVRQAPGKGLEWVAYISSGSSTFYYADSVKGRFTISRDNSKNTLYLQMNSLRAEDTAVYYCARSPAYYRYGLDYWGQGTTVTVSS VL: DIVMTQSPDSLAVSLGERATINCRASQSVSSSTFSYMHWYQQKPGQPPKLLIKSSSNLESGVPDRFSGSGSGTDFTLTISSLQAEDVAVYYCQHSWEIPYTFGGGTKVEIK: 10.00
Hu159D5-6 (antibody, V domains shown, humanized) VH: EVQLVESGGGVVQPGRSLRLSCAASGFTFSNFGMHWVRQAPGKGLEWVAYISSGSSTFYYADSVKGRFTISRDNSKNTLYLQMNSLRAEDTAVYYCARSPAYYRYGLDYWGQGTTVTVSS VL: DIVLTQSPDSLAVSLGERATINCRASQSVSSSTFSYMHWYQQKPGQPPKLLIKSSSNLESGVPDRFSGSGSGTDFTLTISSLQAEDVAVYYCQHSWEIPYTFGGGTKVEIK: 10.00
Hu159D5-10 (antibody, V domains shown, humanized) VH: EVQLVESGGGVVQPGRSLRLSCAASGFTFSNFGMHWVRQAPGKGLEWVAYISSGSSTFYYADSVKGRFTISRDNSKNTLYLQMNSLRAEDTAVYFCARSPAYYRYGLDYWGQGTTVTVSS VL: DIVMTQSPDSLAVSLGERATINCRASQSVSSSTFSYMHWYQQKPGQPPKLLIYSSSNLESGVPDRFSGSGSGTDFTLTISSLQAEDVAVYYCQHSWEIPYTFGGGTKVEIK: 10.03
Hu159D5-3 (antibody, V domains shown, humanized) VH: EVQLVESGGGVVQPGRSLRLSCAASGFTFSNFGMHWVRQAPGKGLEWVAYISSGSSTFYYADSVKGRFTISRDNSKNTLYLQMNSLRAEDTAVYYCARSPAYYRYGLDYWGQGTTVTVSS VL: DIVLTQTPLSLSVTPGQPASISCRASQSVSSSTFSYMHWYQQKPGQPPQLLIKSSSNLESGVPDRFSGSGSGTDFTLKISRVEAEDVGVYYCQHSWEIPYTFGGGTKVEIK: 9.92

Let us move to another entry and its pEC50.
Dear colleague, I am looking for the recorded pEC50 of the following binder: Hu159D5-8 (antibody, V domains shown, humanized) VH: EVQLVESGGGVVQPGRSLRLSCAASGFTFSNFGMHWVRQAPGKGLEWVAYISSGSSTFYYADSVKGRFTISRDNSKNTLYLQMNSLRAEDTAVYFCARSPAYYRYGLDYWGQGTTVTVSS VL: DIVMTQTPLSLSVTPGQPASISCRASQSVSSSTFSYMHWYQQKPGQPPQLLIKSSSNLESGVPDRFSGSGSGTDFTLKISRVEAEDVGVYYCQHSWEIPYTFGGGTKVEIK 9.82
